- tested-target: T1, Recombinant Human DLL4 (R&D Systems Cat#1506-D4/CF) (human, UniProt Q9NR61 27-524)
- T1 construct: Bought recombinant protein; also called delta-like protein 4; rHuman DLL4
- experiment-description: ECL multispot (MSD) binding assay, antigen spotted on plate, Fab 0.04 uM;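 also: purified Fab incubated 1 h at 20 °C on antigen spots, detected via TAG-labelled antibody, ECL read against each well's blank, with signal-to-blank of at least 4 scored as binder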
value-type: ECL signal
Reply with the value as a number alone.

{"binder": "Fab VH5-51_IGHD5-18*01>3_IGHJ4*01 G100K/G104T (H:KT) & V3-4_IGLJ1*01 S99A (Fab, V domains shown, Fab; Expressed from Plasmid A (CH1, His6 and Flag tags) and Plasmid E (lambda CL); also called KT & S99A) VH: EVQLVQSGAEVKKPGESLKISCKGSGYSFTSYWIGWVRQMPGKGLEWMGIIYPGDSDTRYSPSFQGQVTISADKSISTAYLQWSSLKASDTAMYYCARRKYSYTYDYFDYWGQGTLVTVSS VL: QTVVTQEPSFSVSPGGTVTLTCGLSSGSVSTSYYPSWYQQTPGQAPRTLIYSTNTRSSGVPDRFSGSILGNKAALTITGAQADDESDYYCVLYMGSGIAYVFGTGTKVTVL", "value-type": "ECL signal", "result-value": 18200}

Value of ECL signal reported for the binder Fab VH5-51_IGHD5-18*01>3_IGHJ4*01 G100K/G104T (H:KT) & V3-4_IGLJ1*01 V91A (Fab, V domains shown, Fab; Expressed from Plasmid A (CH1, His6 and Flag tags) and Plasmid E (lambda CL); also called KT & V91A) VH: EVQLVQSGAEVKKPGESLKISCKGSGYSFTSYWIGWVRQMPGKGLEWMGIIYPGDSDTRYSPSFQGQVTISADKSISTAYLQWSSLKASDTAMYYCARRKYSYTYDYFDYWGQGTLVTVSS VL: QTVVTQEPSFSVSPGGTVTLTCGLSSGSVSTSYYPSWYQQTPGQAPRTLIYSTNTRSSGVPDRFSGSILGNKAALTITGAQADDESDYYCALYMGSGISYVFGTGTKVTVL is 33400

Lab note: Fab VH5-51_IGHD5-18*01>3_IGHJ4*01 G100K/G104T (H:KT) & V3-4_IGLJ1*01 G95A (Fab, V domains shown, Fab; Expressed from Plasmid A (CH1, His6 and Flag tags) and Plasmid E (lambda CL); also called KT & G95A) VH: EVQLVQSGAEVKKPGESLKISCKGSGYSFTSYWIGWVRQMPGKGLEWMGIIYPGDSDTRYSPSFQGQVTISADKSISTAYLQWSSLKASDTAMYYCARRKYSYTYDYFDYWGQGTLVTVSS VL: QTVVTQEPSFSVSPGGTVTLTCGLSSGSVSTSYYPSWYQQTPGQAPRTLIYSTNTRSSGVPDRFSGSILGNKAALTITGAQADDESDYYCVLYMASGISYVFGTGTKVTVL gave ECL signal of 10400

According to the records, this binder Fab VH5-51_IGHD5-18*01>3_IGHJ4*01 G100K/G104T (H:KT) & V3-4_IGLJ1*01 Y93A (Fab, V domains shown, Fab; Expressed from Plasmid A (CH1, His6 and Flag tags) and Plasmid E (lambda CL); also called KT & Y93A) VH: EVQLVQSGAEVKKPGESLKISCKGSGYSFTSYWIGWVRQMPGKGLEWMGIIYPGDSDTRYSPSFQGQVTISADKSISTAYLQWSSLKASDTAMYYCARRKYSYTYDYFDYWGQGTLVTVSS VL: QTVVTQEPSFSVSPGGTVTLTCGLSSGSVSTSYYPSWYQQTPGQAPRTLIYSTNTRSSGVPDRFSGSILGNKAALTITGAQADDESDYYCVLAMGSGISYVFGTGTKVTVL displays ECL signal of 8110

Measured ECL signal, Fab VH5-51_IGHD5-18*01>3_IGHJ4*01 G100K/G104T (H:KT) & V3-4_IGLJ1*01 L92A (Fab, V domains shown, Fab; Expressed from Plasmid A (CH1, His6 and Flag tags) and Plasmid E (lambda CL); also called KT & L92A) VH: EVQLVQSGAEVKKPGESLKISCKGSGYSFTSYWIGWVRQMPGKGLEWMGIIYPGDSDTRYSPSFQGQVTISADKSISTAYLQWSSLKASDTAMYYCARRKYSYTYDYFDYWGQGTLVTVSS VL: QTVVTQEPSFSVSPGGTVTLTCGLSSGSVSTSYYPSWYQQTPGQAPRTLIYSTNTRSSGVPDRFSGSILGNKAALTITGAQADDESDYYCVAYMGSGISYVFGTGTKVTVL : 11700

// ECL signal value for Fab VH5-51_IGHD5-18*01>3_IGHJ4*01 G100K/G104T (H:KT) & V3-4_IGLJ1*01 G97A (Fab, V domains shown, Fab; Expressed from Plasmid A (CH1, His6 and Flag tags) and Plasmid E (lambda CL); also called KT & G97A) VH: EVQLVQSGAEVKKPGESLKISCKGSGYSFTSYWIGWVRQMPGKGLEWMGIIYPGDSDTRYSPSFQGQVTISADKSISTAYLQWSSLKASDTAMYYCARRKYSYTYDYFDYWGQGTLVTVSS VL: QTVVTQEPSFSVSPGGTVTLTCGLSSGSVSTSYYPSWYQQTPGQAPRTLIYSTNTRSSGVPDRFSGSILGNKAALTITGAQADDESDYYCVLYMGSAISYVFGTGTKVTVL : 14900

Fab VH5-51_IGHD5-18*01>3_IGHJ4*01 G100K/G104T (H:KT) & V3-4_IGLJ1*01 S96A (Fab, V domains shown, Fab; Expressed from Plasmid A (CH1, His6 and Flag tags) and Plasmid E (lambda CL); also called KT & S96A) VH: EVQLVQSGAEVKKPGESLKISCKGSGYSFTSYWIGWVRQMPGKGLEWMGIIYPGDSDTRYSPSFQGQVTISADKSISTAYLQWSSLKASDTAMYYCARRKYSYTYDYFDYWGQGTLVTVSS VL: QTVVTQEPSFSVSPGGTVTLTCGLSSGSVSTSYYPSWYQQTPGQAPRTLIYSTNTRSSGVPDRFSGSILGNKAALTITGAQADDESDYYCVLYMGAGISYVFGTGTKVTVL yielded ECL signal of 32300

So, Fab VH5-51_IGHD5-18*01>3_IGHJ4*01 G100K/G104T (H:KT) & V3-4_IGLJ1*01 M94A (Fab, V domains shown, Fab; Expressed from Plasmid A (CH1, His6 and Flag tags) and Plasmid E (lambda CL); also called KT & M94A) VH: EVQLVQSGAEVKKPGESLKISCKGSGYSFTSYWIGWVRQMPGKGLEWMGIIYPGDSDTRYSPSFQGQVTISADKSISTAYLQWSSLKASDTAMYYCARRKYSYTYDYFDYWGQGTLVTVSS VL: QTVVTQEPSFSVSPGGTVTLTCGLSSGSVSTSYYPSWYQQTPGQAPRTLIYSTNTRSSGVPDRFSGSILGNKAALTITGAQADDESDYYCVLYAGSGISYVFGTGTKVTVL ? Its ECL signal was 35300

Noted for Fab VH5-51_IGHD5-18*01>3_IGHJ4*01 G100K/G104T (H:KT) & V3-4_IGLJ1*01 I98A (Fab, V domains shown, Fab; Expressed from Plasmid A (CH1, His6 and Flag tags) and Plasmid E (lambda CL); also called KT & I98A) VH: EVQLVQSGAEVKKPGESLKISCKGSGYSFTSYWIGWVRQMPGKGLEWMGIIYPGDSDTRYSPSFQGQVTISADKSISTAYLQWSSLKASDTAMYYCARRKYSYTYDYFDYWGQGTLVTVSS VL: QTVVTQEPSFSVSPGGTVTLTCGLSSGSVSTSYYPSWYQQTPGQAPRTLIYSTNTRSSGVPDRFSGSILGNKAALTITGAQADDESDYYCVLYMGSGASYVFGTGTKVTVL : its ECL signal reads 15100
